Reported NF-kB reporter is given for each of the following molecules.
System: RAW-Dual (murine macrophage reporter line)
Test: NF-kB reporter (SEAP) activity fold change vs agonist alone; higher = enhanced NF-kB activity
Settings: modulator concentration 10 µM; agonist: LPS 0.1 ug/mL
API note: the answer field is a bare number with no unit suffix.

Illustrative cases are given below, each with its answer.
| Molecule | Tgt | NF-kB reporter |
| --- | --- | --- |
| CC(C)Oc1ccc(C(=O)N2CCC(c3ccccc3)S(=O)(=O)CC2)cc1 (stereo unspecified) | RAW-Dual (murine macrophage reporter line) | 1.07 |
| O=C(c1ccco1)c1nc2c(n1O)CCCCC2 | RAW-Dual (murine macrophage reporter line) | 0.995 |
| COc1ccccc1N1CCN(CC(O)COc2cccc3ccccc23)CC1.Cl.Cl (stereo unspecified) | RAW-Dual (murine macrophage reporter line) | 0.696 |
| O=c1cc(-c2ccc(O)c(O)c2)oc2cc(O)cc(O)c12 [Prestw-870] | RAW-Dual (murine macrophage reporter line) | 1.21 |
| COc1cc2nc(N(C)CCCNC(=O)C3CCCO3)nc(N)c2cc1OC.Cl (stereo unspecified) | RAW-Dual (murine macrophage reporter line) | 0.838 |
| NC(=O)CSc1nc2ccccc2[nH]1 | RAW-Dual (murine macrophage reporter line) | 1.07 |

Fill in reported NF-kB reporter for this entry: COCCn1c(C)cc(C(=O)CSc2ncnc3sc4c(c23)CCC4)c1C
1.11

###

Reported NF-kB reporter is given for each of the following compounds.
Test system: RAW-Dual (murine macrophage reporter line)
Assay: NF-kB reporter (SEAP) activity fold change vs agonist alone; higher = enhanced NF-kB activity
Conditions: modulator concentration 10 µM; agonist: MPLA […]
API note: the answer field is a bare number with no unit suffix.

Illustrative cases are given below, each with its answer.
| Compound | Tgt | NF-kB reporter |
| --- | --- | --- |
| NS(=O)(=O)c1ccc(F)cc1 | RAW-Dual (murine macrophage reporter line) | 0.997 |
| CCN(CC)c1ccc2cc(-c3nnc(NCc4ccc(F)cc4)s3)c(=O)oc2c1 | RAW-Dual (murine macrophage reporter line) | 0.906 |
| Cc1ccc(Sc2ccccc2N2CCNCC2)c(C)c1 | RAW-Dual (murine macrophage reporter line) | 2.11 |
| CCn1c(=O)c2c(nc(/C=C/c3ccc(OC)c(OC)c3)n2C)n(CC)c1=O | RAW-Dual (murine macrophage reporter line) | 1.14 |
| O=C(O)C=C(CC(=O)O)C(=O)O | RAW-Dual (murine macrophage reporter line) | 0.946 |

Please find the next compound below.
Fill in reported NF-kB reporter for this entry: O=C(CCn1c(=O)oc2ccccc21)Nc1ccncc1
1.01

###

Tested on: RAW-Dual (murine macrophage reporter line)
Test: NF-kB reporter (SEAP) activity fold change vs agonist alone; higher = enhanced NF-kB activity
Details: modulator concentration 10 µM; agonist: LPS 0.1 ug/mL
Readout Name: NF-kB reporter
API note: the answer field is a bare number with no unit suffix.

Illustrative cases are given below, each with its answer.
| Compound | NF-kB reporter |
| --- | --- |
| CCC(=O)N(CCC(c1ccccc1OC)C1CCOC(C)(C)C1)Cc1ccc(OC)cc1 (stereo not given) | 0.986 |
| O=[N+]([O-])c1ccc(OCC(O)CN2CCN(c3ccccc3)CC2)cc1 (stereo not given) | 1.02 |
| c1ccc2nc3c(cc(N4CCOCC4)c4ccccc43)nc2c1 | 1.04 |
| CCOC(=O)C1=C(C)NC(C)=C(C(=O)OCC)C1c1ccc(OC)cc1 | 1.05 |

Please find the next compound below.
For RAW-Dual (murine macrophage reporter line), give NF-kB reporter of the listed compound: COc1ccc(OC)c(Nc2nc(-c3c(C)nc4sccn34)cs2)c1
0.961
